Target: UniProtKB P08913
Sequence (P08913 whole entry): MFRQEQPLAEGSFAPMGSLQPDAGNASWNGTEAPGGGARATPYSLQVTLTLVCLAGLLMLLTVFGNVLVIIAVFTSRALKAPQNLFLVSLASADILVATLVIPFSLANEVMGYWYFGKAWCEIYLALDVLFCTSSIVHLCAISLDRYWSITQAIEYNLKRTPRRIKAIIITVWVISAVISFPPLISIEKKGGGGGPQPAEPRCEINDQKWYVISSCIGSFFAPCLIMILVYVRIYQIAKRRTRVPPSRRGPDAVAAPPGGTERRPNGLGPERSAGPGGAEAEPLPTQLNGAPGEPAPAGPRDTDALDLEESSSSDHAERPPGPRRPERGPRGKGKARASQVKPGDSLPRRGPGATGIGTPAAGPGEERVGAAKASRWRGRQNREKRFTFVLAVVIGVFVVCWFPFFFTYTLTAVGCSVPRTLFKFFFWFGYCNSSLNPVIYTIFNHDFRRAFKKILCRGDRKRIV
Test: RSAT (Receptor Selection and Amplification Technology) assay, α2A
Conditions: NIH-3T3 cells cotransfected with receptor and G protein
Where a name gives a salt, the structure may show the parent alone.
readout name: EC50

Use the examples below as a reference point.
>>> measured("c1cnc2c(c1)CCC(Cc1c[nH]cn1)C2 (single isomer, unassigned; (+)) [(+) enantiomer, dihydrochloride]")
"2.9 nM"
>>> measured("c1cnc2c(c1)CCC(Cc1c[nH]cn1)C2 (racemic) [racemic mixture, dihydrochloride]")
"3.9 nM"

Q. # lookup: EC50 of c1cnc2c(c1)CCC(Cc1c[nH]cn1)C2 (single isomer, unassigned; (-)) [(−) enantiomer]
A. 58.4 nM

Values were extracted from patent US7943641B2.
